Test system: OVCAR-4 ovarian
Assay: NCI-60 one-dose screen, 48 h (100 = growth as untreated, 0 = no growth, -100 = all killed)
Details: 10 µM unless noted
The panel holds about 83,000 compounds, 20% with a hit somewhere; the sample as a whole holds those more often.
Kindly state growth for each of the entries shown.
Numeric answer only, unit % assumed.

Reported growth for c1ccc(-c2nnc(Nc3nnc(-c4ccccc4)s3)s2)cc1 was 101

Reported growth for COc1ccc2[nH]cc(/C=C3/C(=O)Nc4ccc(F)cc43)c2c1 was 75.6

Reported growth for CN1CCN(CC(=O)Nc2nc3c(s2)Nc2cc(Cl)c(Cl)cc2NC3=O)CC1 was 116

Reported growth for Fc1ccc(-c2nc(Nc3ccc(-c4nc5ccccc5[nH]4)cc3)nc(N3CCOCC3)n2)cc1 was -73.9

Reported growth for COc1ccc(-c2nn(-c3cccc(Cl)c3)cc2C2CC(c3ccccc3)=NN2C(C)=O)cc1 (stereo not drawn) was 23.3

Reported growth for CC(CCC(=O)O)(NC(=O)c1ccc([N+](=O)[O-])cc1)C(=O)O (stereo not drawn) was 111

Reported growth for C=C(C)[C@H]1CC/C(C)=C/CC[C@]2(C)O[C@H]2CC/C(COC(C)=O)=C\C1=O was 123

Reported growth for CN(CCOc1ccc(CC2SC(=O)NC2=O)cc1)c1ccccn1 (stereo not drawn) was 110

----------
Test system: NCI-H322M lung
Test: NCI-60 one-dose screen, 48 h (100 = growth as untreated, 0 = no growth, -100 = all killed)
Conditions: 10 µM unless noted
Experimental: Growth inhibition of the NCI-H322M human Non-Small Cell Lung tumor cell line is measured as a screen for anti-cancer activity. Cells are grown in 96 well plates and exposed to the test compound for 48 hours. Compounds are tested at a single concentration, which is 10^-5 M for most compounds. The reported endpoint is percent growth (GI% or GIPRCNT), where numbers from 0 - 100% represent growth inhibition, and numbers from -100% - 0 represent cell death. […]
About 83,000 compounds went through this panel and 20% of them were active in at least one assay; those are over-represented in the sample as a whole.
Kindly state growth for each of the entries shown.
Numeric answer only, unit % assumed.

growth on NCI-H322M lung for Nc1ncc(-c2cnn(C3CCNCC3)c2)cc1-c1nc2cc(Cl)ccc2o1 is -59.1

growth on NCI-H322M lung for CC1CC(C)/C(=N/NC(N)=O)C(C(O)CC2CCC(=O)NC2=O)C1 (stereo not drawn) is 14.4

growth on NCI-H322M lung for Cc1ccc([N+](=O)[O-])cc1NC(=O)Nc1cccc(F)c1 is 98.3

----------
System: UACC-257 melanoma
Test: NCI-60 one-dose screen, 48 h (100 = growth as untreated, 0 = no growth, -100 = all killed)
Settings: 10 µM unless noted
This is part of a sample that, as a whole, favours compounds with a hit. Of some 83,000 tested, about 20% had one in any assay. Calls of active or inactive are those of the source. The calls were made as follows: active = growth percent below 10; inactive = the rest.
metric name: growth

growth on UACC-257 melanoma for O=C(Nc1nc(-c2ccccc2)cs1)c1cc(O)c(O)c(O)c1 is 80.9% (inactive)

growth on UACC-257 melanoma for C[C@]12CC[C@@H]3c4ccc(O)cc4CC[C@H]3[C@@H]1CC[C@@H]2NS(=O)(=O)c1cccc(Br)c1 is 80.3% (inactive)

growth on UACC-257 melanoma for O=C1Cc2cc(CCN3CCN(CCOCCO)CC3)c(Cl)cc2N1Cc1ccc(-c2ccccc2-c2nn[nH]n2)cc1 is 81.4% (inactive)

----------
Tested on: OVCAR-4 ovarian
Experiment: NCI-60 one-dose screen, 48 h (100 = growth as untreated, 0 = no growth, -100 = all killed)
Conditions: 10 µM unless noted
This is part of a sample that, as a whole, favours compounds with a hit. Of some 83,000 tested, about 20% had one in any assay.
Kindly state growth for each of the entries shown.
Numeric answer only, unit % assumed.

Reported growth for CC(C)COCC(CN(Cc1ccccc1)c1ccccc1)N1CCCC1 (configuration not stated) was 49.9

Reported growth for CC(=O)Oc1c(C)c(OC(C)=O)c2c(c1C(C)=O)OC1CC(=O)C(C(C)=O)=C(O)C21C (configuration not stated) was 99

Reported growth for Cc1ccsc1/C=C/C1=NCCCN1C was 102

Reported growth for O=C1CN(CO)C(=O)CN1CO was 111

Reported growth for COc1cc(NC(=O)c2cc3ccccc3cc2O)c(OC)cc1Cl was 38.4

Reported growth for CCN(CC)CCOc1ccccc1-n1c(C)ccc1-c1ccccc1 was 106

Reported growth for CSc1nc2c(c(=O)n1C)C(c1ccccc1)C1=C(N2)/C(=C/c2ccccc2)CCC1 (configuration not stated) was 68.3

----------
System: SK-OV-3 ovarian
Assay: NCI-60 one-dose screen, 48 h (100 = growth as untreated, 0 = no growth, -100 = all killed)
Conditions: 10 µM unless noted
Compounds without any hit were thinned out: in the full panel of roughly 83,000, 20% have a hit. Active and inactive are the calls of the source. Rule for the calls: active = growth percent below 10; inactive = the rest.
metric name: growth

Reported growth for Cc1cc(C)c(OC(=O)CSc2nc3ccccc3c(=O)n2CCc2ccccc2)cc1C was 95.7% (inactive)

Reported growth for CC(CCC(=O)O)(NC(=O)c1ccc([N+](=O)[O-])cc1)C(=O)O (stereo not drawn) was 96% (inactive)

Reported growth for Cc1cc(NC(=O)Nc2cccc3ccccc23)no1 was 103% (inactive)

Reported growth for CCOC(=O)C(C(C)=O)c1nc2sc3cc(Cl)ccc3n2c(=N)c1C#N (stereo not drawn) was 84.6% (inactive)

Reported growth for COc1ccc2c(c1)C(=O)c1c-2c(OCCCN(C)C)nc2cc(Br)ccc12 was 81.3% (inactive)

Reported growth for CO[C@H]1/C=C/O[C@@]2(C)Oc3c(C)c(O)c4c(O)c(c(/C=N/N5C(C)CN(Cc6ccccc6)CC5C)c(O)c4c3C2=O)NC(=O)/C(C)=C\C=C\[C@H](C)[C@H](O)[C@@H](C)[C@@H](O)[C@@H](C)[C@H](OC(C)=O)[C@@H]1C (stereo partly drawn) was 116% (inactive)

Reported growth for CCCCSc1cc(C)nc(N)n1 was 97.8% (inactive)

Reported growth for O=C1c2ccccc2-c2c1nc1ccccc1[n+]2[O-] was 102% (inactive)

Reported growth for NCCCc1nnc(CCC(=O)c2nc3ccccc3[nH]2)o1 was 106% (inactive)

Reported growth for CCC(CCC(C)C1CCC2C3CC=C4CC(O)CCC4(C)C3CCC12C)C(C)C (stereo not drawn) (tested in a mixture with another compound) was 127% (inactive)

Reported growth for COc1ccc(-c2nnc(COc3ccc(NC(=O)Nc4cc(C(F)(F)F)cc(C(F)(F)F)c4)cc3F)o2)cc1 was 18.4% (inactive)

Reported growth for CCCCCCCC/C=C/CCCCCCCC1=NC(C)(C)CN1CCO was 78.6% (inactive)

Reported growth for CCOC(=O)c1cc(-c2cccnc2)nc2c(Cl)cc(Cl)cc12 was 91.2% (inactive)

Reported growth for O=C(/C=C/c1cccnc1)NCCCCC1CCCN(C(=O)c2ccccc2)C1 (stereo not drawn) was 91.6% (inactive)

Reported growth for CC(=O)c1ccc2c3c(n(C)c2c1)CCCC3 was 110% (inactive)

Reported growth for O=C1NCN(CCO)CN1 was 95.4% (inactive)

Reported growth for CSc1nnc(C2=CC(=O)c3ccccc3C2=O)n1-c1ccccc1 was 93.7% (inactive)

Reported growth for Cc1c(C(N)=O)sc2c1C(=O)N(Cc1ccccc1)C1=NN=C(c3ccc(Cl)cc3)CN12 was 58.5% (inactive)

Reported growth for CN(C)c1cccc2c(S(=O)(=O)N[C@H]3CC[C@H]4[C@@H]5CCc6cc(O)ccc6[C@H]5CC[C@]34C)cccc12 was 33.3% (inactive)

Reported growth for COc1ccc(C2=NN(C(=O)c3cc(OC)c(OC)c(OC)c3)C(c3ccc(C#N)cc3)C2)cc1OC (stereo not drawn) was 19.8% (inactive)

Reported growth for COc1cc2cn3c4ccc(O)cc4nc(N)c3c2cc1OC was 27.2% (inactive)

Reported growth for CCCc1cccc(CCC)c1O was 110% (inactive)

Reported growth for CN=C(NC)N/N=C(C)\C=N\NC(=NC)NC was 101% (inactive)

----------
System: MALME-3M melanoma
Test: NCI-60 one-dose screen, 48 h (100 = growth as untreated, 0 = no growth, -100 = all killed)
Conditions: 10 µM unless noted
About 83,000 compounds went through this panel and 20% of them were active in at least one assay; those are over-represented in the sample as a whole.
Kindly state growth for each of the entries shown.
Numeric answer only, unit % assumed.

growth on MALME-3M melanoma for CCCc1nn(C)c2c(=O)[nH]c(-c3cc(S(=O)(=O)N4CCN(C)CC4)ccc3OCC)nc12 is 102

growth on MALME-3M melanoma for COc1ccc(C2=NN(C(C)=O)C(c3cc(OC)c(OC)c(OC)c3)C2)cc1 (centres undefined) is 120

growth on MALME-3M melanoma for O=C1NCN(CCO)CN1 is 92.6

growth on MALME-3M melanoma for O=C1C(=O)c2ccc(Br)cc2-c2cc(Br)ccc21 is 70.4

growth on MALME-3M melanoma for Clc1ccc(-c2nc(-c3cccs3)no2)c(Cl)c1 is 103

growth on MALME-3M melanoma for CC(C)c1ccc(C(=O)Nc2sc3c(CN(C)C)c(O)ccc3c2C(N)=O)cc1 is 63.9

growth on MALME-3M melanoma for Cc1cc(NC(=O)Nc2cccc3ccccc23)no1 is 101

growth on MALME-3M melanoma for N=c1ccn2c(n1)O[C@@H]1[C@@H](O)[C@H](CO)O[C@@H]12 is 59.1

growth on MALME-3M melanoma for CCCCCCCCCCSc1ncnc2nc[nH]c12 is 102

Value source: PubChem BioAssay (NCI)
